- STUDY TARGET: UniProt P43220
- Sequence (P43220 24-463): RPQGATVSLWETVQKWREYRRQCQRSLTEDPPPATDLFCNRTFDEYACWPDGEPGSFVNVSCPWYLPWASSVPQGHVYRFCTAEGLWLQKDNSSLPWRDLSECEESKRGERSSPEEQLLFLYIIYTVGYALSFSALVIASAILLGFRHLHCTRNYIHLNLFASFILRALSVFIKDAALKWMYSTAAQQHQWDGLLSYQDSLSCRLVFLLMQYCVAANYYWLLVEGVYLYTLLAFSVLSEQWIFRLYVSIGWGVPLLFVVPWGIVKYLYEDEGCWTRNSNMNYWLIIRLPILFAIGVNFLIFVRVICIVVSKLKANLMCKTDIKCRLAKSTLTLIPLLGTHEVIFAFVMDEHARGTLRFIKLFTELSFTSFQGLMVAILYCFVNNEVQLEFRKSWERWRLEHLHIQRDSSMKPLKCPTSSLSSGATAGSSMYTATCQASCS
- EXPERIMENT NOTES: GLP-1 receptor in vitro calcium assay (intracellular free calcium concentration change induced via GLP-1 receptor)
- CONDITION DETAILS: PRG48 cells transfected with human GLP-1R; compound added with 250 pM GLP-1; Ca2+ response ΔF/F; read-out: Ca EC50 value
- Method: The supernatant was removed by centrifugation (1,200 rpm, 3 min), and the cells were suspended at 4×10^6 cells/mL in 5% FBS DMEM/Ham's F-12. 1.0 mL thereof was seeded in a 15 cm dish and cultured (37° C., 5% CO2) overnight. […] The cells were counted, suspended at 0.5×10^6 cells/mL in 5% FBS DMEM/Ham's F-12 medium, and seeded in each well of D-Lysine coat 96 well plate (BD Bioscience) at 7.0×10^4 cells. […]
Rule: EC50 below 0.2 µM gives criterion met, anything at or above gives criterion not met.

Solved cases (4 shown):
# MOLECULE, STUDY TARGET, ASSIGNED CLASS
data = [
    ("CSCCCN(c1ccc(NC(=O)N[C@H](Cc2c[nH]c3ccccc23)C(=O)NC(C)CCCC(C)C)cc1)S(=O)(=O)c1ccc(C(C)(C)C)cc1 (stereo partly drawn)", "UniProt P43220", "criterion met"),
    ("CCCCCCNC(=O)[C@@H](Cc1ccc(Cl)cc1)NC(=O)Nc1ccc(NS(=O)(=O)c2ccc(C)cc2)cc1", "UniProt P43220", "criterion met"),
    ("CC(C)CCCC(C)NC(=O)[C@@H](CC1CCCCC1)NC(=O)Nc1ccc(NS(=O)(=O)c2ccc(N3CCOCC3)nc2)cc1 (stereo partly drawn)", "UniProt P43220", "criterion not met"),
    ("CC(C)CCCC(C)NC(=O)[C@@H](CC1CCCCC1)NC(=O)Nc1cccc(NS(=O)(=O)c2ccc(C(C)(C)C)cc2)c1 (stereo partly drawn)", "UniProt P43220", "criterion met"),
]

Q: EC50 under 0.2 µM? Item: CCCCCCNC(=O)[C@@H](Cc1cccnc1)NC(=O)Nc1ccc(NS(=O)(=O)c2ccc(C(C)(C)C)cc2)cc1
A: criterion not met

Q: EC50 under 0.2 µM? Item: CC(C)(C)OC(=O)[C@H](Cc1ccccc1)NC(=O)Nc1ccc(NS(=O)(=O)Cc2ccccc2)cc1
A: criterion not met
